Reference source for all entries: ChEMBL document CHEMBL1201862

tested on: 786-0; assay: NCI tumour cell line growth inhibition, 48 h
Active and inactive are the calls of the source. Rule as the data show it: active = GI50 up to about 1.1 µM and inactive = higher.
Would you mind answering with one of these outcomes? active, inactive

Reference set (8 entries):
> print(dat)
                                   molecule  category.label
1  CC(=O)Nc1ccc(C(=O)NN2C(=O)C(Cl)C2c2ccc(O)cc2)cc1 (stereo not drawn)        inactive
2            O=C(O)/C(=C\c1ccccc1)Cc1ccccc1        inactive
3  c1ccc(N/N=N/c2ccc(-c3nc4ccccc4o3)cc2)nc1        inactive
4  CC(=O)Nc1cc2nc3n(c2cc1C)CCC3OC(C)=O (stereo not drawn)        inactive
5       Oc1cc(-c2ccc[nH]2)nc2cc3c(cc12)OCO3        inactive
6  CC(C)COC(=O)N1N=NC2C3OC(CC3=O)C21 (stereo not drawn)        inactive
7         C=CCn1c(N)c(C#N)c(C#N)c1-c1ccccc1        inactive
8  CC(C)(C)n1c(=O)n(-c2ccccc2)n(C(C)(C)C)c1=O        inactive

Fill in: this test's call for COC(=O)c1c(OC(=O)c2ccccc2)noc1CC(=O)OC1C=CCCC1 (stereo not drawn) is ___
inactive

Item: CC(=O)Nc1ccc(NCC(=O)Nn2cnc3ccc(S(=O)(=O)Nc4ccc(NC(C)=O)cc4)cc3c2=O)cc1
inactive

Item: CC(C)(NC(=O)OCc1ccccc1)C(=O)OC(=O)C(C)(C)NC(=O)OCc1ccccc1
inactive

Item: O=[N+]([O-])c1cc(-c2nc(-c3ccccc3)c(-c3ccccc3)[nH]2)c(O)c([N+](=O)[O-])c1
inactive

Item: CCOC(=O)c1c[nH]cc1-c1cn(S(=O)(=O)c2ccccc2)cc1C
inactive

Item: C=CCN(CCNS(=O)(=O)c1ccc(C)cc1)S(=O)(=O)c1ccc(C)cc1
inactive

Item: CCc1cc(Cc2ccc(C)c(NC(=O)C(=O)C3C(=O)NC(=O)NC3=O)c2CC)cc(C)c1NC(=O)C(=O)C1C(=O)NC(=O)NC1=O
inactive
